Assign Relative Bindung im Vergleich zu Trx-MC-FA-010 [%] to each entry below.
- TARGET_OR_TEST_SYSTEM: T1, recombinant soluble human Seprase (rhuSeprase) (human, UniProt Q12884 29-760)
- T1 construct: range 29-760; Secreted from CHO-S cells with a mouse Ig kappa secretion signal (not part of the protein in the assay); also called recombinant human Seprase; soluble fraction of human Seprase
- T1 sequence: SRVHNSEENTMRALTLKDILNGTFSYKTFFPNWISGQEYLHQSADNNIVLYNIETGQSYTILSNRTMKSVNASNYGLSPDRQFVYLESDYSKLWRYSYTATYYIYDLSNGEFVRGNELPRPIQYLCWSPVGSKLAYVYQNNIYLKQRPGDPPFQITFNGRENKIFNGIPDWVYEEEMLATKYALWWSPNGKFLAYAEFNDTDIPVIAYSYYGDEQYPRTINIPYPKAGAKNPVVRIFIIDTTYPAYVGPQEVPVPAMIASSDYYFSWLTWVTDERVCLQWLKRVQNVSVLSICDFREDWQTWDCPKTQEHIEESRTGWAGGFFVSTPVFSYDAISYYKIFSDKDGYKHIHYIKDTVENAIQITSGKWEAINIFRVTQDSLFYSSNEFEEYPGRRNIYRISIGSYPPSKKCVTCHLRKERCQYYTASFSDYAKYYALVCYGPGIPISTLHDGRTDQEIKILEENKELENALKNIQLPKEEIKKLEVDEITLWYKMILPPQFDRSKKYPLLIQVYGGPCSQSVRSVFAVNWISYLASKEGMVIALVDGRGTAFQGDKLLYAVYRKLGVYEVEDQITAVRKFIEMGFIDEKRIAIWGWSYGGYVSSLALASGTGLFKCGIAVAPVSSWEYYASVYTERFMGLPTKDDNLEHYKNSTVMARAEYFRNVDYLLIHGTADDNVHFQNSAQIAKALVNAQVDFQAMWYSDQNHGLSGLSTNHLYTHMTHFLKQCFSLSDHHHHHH
- ASSAY_DETAILS: direct ELISA on coated rhuSeprase; binding relative to the parental Trx-MC-FA-010
Positions of bridges follow the written chain, without caps; N, C: chain ends. No end group written: not given here.
Reply with just the number (in %).

The value of Relative Bindung im Vergleich zu Trx-MC-FA-010 [%] measured for the binder GKCPYANWTPGRGPDCRRDSDCPGRCICRGNGYCG (designed binder, disulfide 16-28, 22-34, 3-26; also: N-terminal Trx-His6-S-tag fusion carrier, not in chain, the position follows from the order of the rows; also called alanine scan variant S6A of MC-FA-010, Trx fusion; not shown: thioredoxin-A, His6 tag, S-tag and linkers of the pET-32-LibEx fusion (N-terminal carrier)) [Trx-MC-FA-015] turned out to be 93.6

The binder GKCPYSNWTPGRGPACRRDSDCPGRCICRGNGYCG (designed binder, disulfide 16-28, 22-34, 3-26; also: N-terminal Trx-His6-S-tag fusion carrier, not in chain, the position follows from the order of the rows; also called alanine scan variant D15A of MC-FA-010, Trx fusion; not shown: Thioredoxin-A, His-tag (H6), S-tag and linker of the pET-32-LibEx fusion, N-terminal of the miniprotein) [Trx-MC-FA-0114] showed Relative Bindung im Vergleich zu Trx-MC-FA-010 [%] equal to 59.2

Sure, the documented Relative Bindung im Vergleich zu Trx-MC-FA-010 [%] for GKCPYSNWAPGRGPDCRRDSDCPGRCICRGNGYCG (designed binder, disulfide 16-28, 22-34, 3-26; also: N-terminal Trx-His6-S-tag fusion carrier, not in chain, the position follows from the order of the rows; also called alanine scan variant T9A of MC-FA-010, Trx fusion; not shown: thioredoxin-A, His6 tag, S-tag and linkers of the pET-32-LibEx fusion (N-terminal carrier)) [Trx-MC-FA-018] is 29.9
